Source of measurements: patent US8575163B2

- target: PDK1 (Homo sapiens)
- Sequence (O15530 51-556 limits assumed): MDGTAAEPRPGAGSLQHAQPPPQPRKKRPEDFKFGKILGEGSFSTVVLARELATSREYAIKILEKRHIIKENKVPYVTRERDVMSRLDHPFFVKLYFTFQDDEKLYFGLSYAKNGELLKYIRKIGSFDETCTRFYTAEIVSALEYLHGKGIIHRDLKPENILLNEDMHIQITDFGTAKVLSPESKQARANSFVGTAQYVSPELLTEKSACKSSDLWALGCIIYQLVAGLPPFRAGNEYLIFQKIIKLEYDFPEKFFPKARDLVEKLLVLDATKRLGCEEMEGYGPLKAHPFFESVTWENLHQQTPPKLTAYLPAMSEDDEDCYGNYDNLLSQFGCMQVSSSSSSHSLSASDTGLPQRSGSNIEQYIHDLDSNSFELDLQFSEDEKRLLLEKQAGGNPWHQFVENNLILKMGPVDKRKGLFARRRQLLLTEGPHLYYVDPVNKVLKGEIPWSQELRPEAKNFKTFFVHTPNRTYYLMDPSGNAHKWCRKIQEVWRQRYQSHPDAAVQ
pIC50: −log10 of the molar value.
The compounds listed here are annotated with their pIC50.
property_measured: pIC50

>>> df
                                   compound  data_value
0  CC(C)n1cc(-c2cnc3[nH]cc(-c4cc(C(C)(O)c5cccc(F)c5F)nc(N)n4)c3c2)cn1 (stereo not shown)        7.41
1  CC[C@@](O)(c1ccncc1)c1cc(-c2c[nH]c3ncc(-c4cnn(CC(=O)N5CCCCC5)c4)cc23)nc(N)n1        7.26
2  CC(=O)N1CCN(c2ccc(-c3cnc4[nH]cc(-c5cc(C(C)(O)c6ccccc6)nc(N)n5)c4c3)cn2)CC1 (stereo not shown)        6.85
3  CC[C@@](O)(c1ccccc1)c1cc(-c2c[nH]c3ncc(-c4cnn(CC(=O)N5CCCCC5)c4)cc23)nc(N)n1 (single isomer, unassigned)        6.68
4  CC(C)C(O)(c1cccc(F)c1)c1cc(-c2c[nH]c3ncc(-c4cnn(C)c4)cc23)nc(N)n1 (stereo not shown)        7.25
5  COCOC(C)(c1ccncc1)c1cc(-c2c[nH]c3ncc(Br)cc23)nc(N)n1 (stereo not shown)        6.82
6  CCCC(O)(c1ccncc1)c1cc(-c2c[nH]c3ncc(-c4cnn(C)c4)cc23)nc(N)n1 (stereo not shown)        8.52

---

- target: PDK1 (Homo sapiens, UniProt O15530)
- Construct: His6 (N)
- method: Test for the inhibition of PDK1 (flashplate, 33P-ATP)
- Type: biochemical
- test_context: His6-PDK1 3.4 nM, 4 μM ATP, 30° C., 60 min
Mark MET only when IC50 stays strictly below 70 nM. Values equal to the cut-off are NOT MET.

In [3]: df
Out[3]:
                                    compound      cat
 0  CC(C)(C)OC(=O)NCCNC(=O)CCn1cc(-c2cnc3[nH]cc(-c4cc(C(C)(O)c5ccccc5)nc(N)n4)c3c2)cn1 (stereo not drawn) [A63]  NOT MET
 1  CNc1nc(-c2c[nH]c3ncc(-c4cnn(CCO)c4)cc23)cc(C(C)(O)c2ccccc2)n1 (single isomer, unassigned) [A91]      MET
 2  CCC(O)(c1ccncc1)c1cc(-c2c[nH]c3ncc(-c4cnn(C)c4)cc23)nc(N)n1 (single isomer, unassigned) [A20]      MET
 3  CC(O)(c1ccccc1)c1cc(-c2c[nH]c3ncc(-c4cncnc4)cc23)nc(N)n1 (stereo not drawn) [A100]  NOT MET
 4  CCC(O)(c1cccnc1)c1cc(-c2c[nH]c3ncc(-c4cnn(C)c4)cc23)nc(N)n1 (stereo not drawn) [A26]      MET
 5  Cn1cc(-c2cnc3[nH]cc(-c4cc(C(C)(O)c5cccnc5)nc(N)n4)c3c2)cn1 (stereo not drawn) [A24]      MET
 6  CC(O)(c1ccccc1)c1cc(-c2c[nH]c3ncc(-c4cnn(CCC(=O)N5CCOCC5)c4)cc23)nc(N)n1 (stereo not drawn) [A68]  NOT MET
 7  Cn1cc(-c2cnc3[nH]cc(-c4cc([C@](C)(O)c5cccc(Cl)c5F)nc(N)n4)c3c2)cn1 (single isomer, unassigned) [A138]      MET
 8  Cn1cc(-c2cnc3[nH]cc(-c4cc(C(C)(O)c5cccnc5)nc(N)n4)c3c2)cn1 (single isomer, unassigned) [A58]  NOT MET
 9  Cc1cccc(C(C)(O)c2cc(-c3c[nH]c4ncc(-c5cnn(CCO)c5)cc34)nc(N)n2)c1 (stereo not drawn) [A94]      MET
10  CC(C(=O)N1CCCC1)n1cc(-c2cnc3[nH]cc(-c4cc(C(C)(O)c5ccccc5)nc(N)n4)c3c2)cn1 (stereo not drawn) [A14]      MET
11  Cn1cc(-c2cnc3[nH]cc(-c4cc(C(C)(O)c5ccnnc5)nc(N)n4)c3c2)cn1 (stereo not drawn) [A109]      MET
12  CC(O)(c1ccccc1)c1cc(-c2c[nH]c3ncc(-c4cnn(CCC(=O)N5CCOCC5)c4)cc23)nc(N)n1 (stereo not drawn) [A67]      MET
13  CC(O)(c1cccc(F)c1)c1cc(-c2c[nH]c3ncc(-c4ccc(CC#N)cc4)cc23)nc(N)n1 (stereo not drawn) [A55]  NOT MET
14  COCOC(C)(c1cccc(F)c1)c1nc(N)nc(-c2c[nH]c3ncc(Br)cc23)c1F (stereo not drawn) [A12]  NOT MET
15  CC(O)(c1ccncc1)c1cc(-c2c[nH]c3ncc(-c4cn[nH]c4)cc23)nc(N)n1 (stereo not drawn) [A62]      MET
16  COCOC(C)(c1cccc(C)c1)c1cc(-c2c[nH]c3ncc(-c4cnn(C)c4)cc23)nc(N)n1 (stereo not drawn) [A23]  NOT MET
17  CCC(O)(c1ccccc1)c1cc(-c2c[nH]c3ncc(-c4cnn(CCO)c4)cc23)nc(N)n1 (stereo not drawn) [A98]      MET
18  CCC(OCOC)(c1cccc(F)c1)c1cc(-c2c[nH]c3ncc(Br)cc23)nc(N)n1 (stereo not drawn) [A54]  NOT MET
19  CC[C@](O)(c1cc(-c2c[nH]c3ncc(-c4cnn(C)c4)cc23)nc(N)n1)c1ccncc1F (single isomer, unassigned) [A131]      MET
20  Cc1ccccc1C(C)(O)c1cc(-c2c[nH]c3ncc(-c4cnn(CCO)c4)cc23)nc(N)n1 (stereo not drawn) [A89]      MET
21  COCOC(C)(c1ccccc1)c1cc(-c2c[nH]c3ncc(Br)cc23)nc(N)n1 (stereo not drawn) [A15]  NOT MET
22  CC(O)(c1ccccc1)c1cc(-c2c[nH]c3ncc(-c4cnn(CCF)c4)cc23)nc(N)n1 (stereo not drawn) [A81]      MET
23  Cn1cc(-c2cnc3[nH]cc(-c4cc(C(C)(O)c5ccncc5)nc(N)n4)c3c2)cn1 (single isomer, unassigned) [A41]      MET
24  COCO[C@](C)(c1cccc(F)c1)c1cc(-c2c[nH]c3ncc(Br)cc23)nc(N)n1 [A73]  NOT MET
25  CC(O)(c1cccc(F)c1)c1cc(-c2c[nH]c3ncc(-c4ccc(CO)cc4)cc23)nc(N)n1 (stereo not drawn) [A49]      MET
26  CCC(O)(c1ccncc1)c1cc(-c2c[nH]c3ncc(-c4cn[nH]c4)cc23)nc(N)n1 (single isomer, unassigned) [A43]      MET
27  CC(O)(c1ccccc1)c1cc(-c2c[nH]c3ncc(-c4cnn(CCO)c4)cc23)nc(N)n1 (single isomer, unassigned) [A96]      MET
28  Cn1cc(-c2cnc3[nH]cc(-c4cc([C@@](O)(c5ccccc5)C(F)(F)F)nc(N)n4)c3c2)cn1 (single isomer, unassigned) [A123]  NOT MET
